molecular target: T1, CDK9/cyclin T1 (Homo sapiens, UniProt P50750); test: NanoBRET live cell target engagement; format: binding; settings: NanoBRET, HEK293 cells; value (SD); read-out: intracellular IC50 (nmol/L) CDK9/cyclin T1
T1 construct: purchased Carna 04-110
T1 sequence (P50750 whole entry): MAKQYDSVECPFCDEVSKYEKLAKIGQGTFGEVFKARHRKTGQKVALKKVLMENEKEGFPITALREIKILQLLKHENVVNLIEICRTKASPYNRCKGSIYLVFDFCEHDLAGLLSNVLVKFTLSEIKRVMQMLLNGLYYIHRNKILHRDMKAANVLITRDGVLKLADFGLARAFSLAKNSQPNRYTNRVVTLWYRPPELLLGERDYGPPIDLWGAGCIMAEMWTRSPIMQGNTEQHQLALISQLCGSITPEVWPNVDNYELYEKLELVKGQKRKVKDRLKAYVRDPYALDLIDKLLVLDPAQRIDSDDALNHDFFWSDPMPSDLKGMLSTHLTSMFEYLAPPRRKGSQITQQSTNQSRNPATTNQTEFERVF
T1 sequence (O60563 whole entry partner): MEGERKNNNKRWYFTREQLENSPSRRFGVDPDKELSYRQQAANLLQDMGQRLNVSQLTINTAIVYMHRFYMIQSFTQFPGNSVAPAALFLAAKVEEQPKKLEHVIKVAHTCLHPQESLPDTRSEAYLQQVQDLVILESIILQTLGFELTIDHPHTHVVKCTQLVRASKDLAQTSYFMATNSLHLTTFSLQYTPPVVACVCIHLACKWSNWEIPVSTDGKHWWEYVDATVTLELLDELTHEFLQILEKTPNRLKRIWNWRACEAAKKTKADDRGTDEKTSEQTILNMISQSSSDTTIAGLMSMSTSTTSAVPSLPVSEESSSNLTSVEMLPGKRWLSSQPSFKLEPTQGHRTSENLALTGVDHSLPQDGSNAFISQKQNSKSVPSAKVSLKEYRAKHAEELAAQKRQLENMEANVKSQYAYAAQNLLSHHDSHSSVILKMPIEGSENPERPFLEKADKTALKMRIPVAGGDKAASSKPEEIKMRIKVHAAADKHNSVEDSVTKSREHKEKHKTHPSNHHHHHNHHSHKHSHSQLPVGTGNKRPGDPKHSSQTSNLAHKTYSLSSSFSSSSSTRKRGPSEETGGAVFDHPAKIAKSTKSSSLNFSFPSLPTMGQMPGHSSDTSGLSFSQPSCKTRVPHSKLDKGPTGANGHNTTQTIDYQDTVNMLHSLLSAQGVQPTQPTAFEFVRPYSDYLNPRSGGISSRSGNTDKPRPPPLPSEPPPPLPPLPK

compound	IC50
NS(=O)(=O)c1ccc(Nc2ncc3cc4n(c3n2)C2(CCCCC2)C(=O)NN4)cc1 [INX-315]	2950 nmol/L

====

tested on: five cell lines with CCNE1 amplification (ovarian cancer); test: CellTiter Glo viability assay; type: cell-based; settings: 144 h, read-out: cellular IC50
pIC50: −log10 of the molar value.

querySmiles	pIC50
NS(=O)(=O)c1ccc(Nc2ncc3cc4n(c3n2)C2(CCCCC2)C(=O)NN4)cc1	> 7.00

====

molecular target: CDK3/cyclin E1 (Homo sapiens, UniProt Q00526); construct: purchased BPS 40103; test: Nanosyn biochemical assay; conditions: ATP at Km, value (SEM), read-out: IC50 (nmol/L) CDK3/cyclin E1
measuredEndpoint: IC50 (nmol/L)

querySmiles	assayedSystem	endpointValue
NS(=O)(=O)c1ccc(Nc2ncc3cc4n(c3n2)C2(CCCCC2)C(=O)NN4)cc1	CDK3/cyclin E1 (Homo sapiens, UniProt Q00526)	15.1
NS(=O)(=O)c1ccc(Nc2ncc3cc4n(c3n2)C2(CCCCC2)CN=C4)cc1	CDK3/cyclin E1 (Homo sapiens, UniProt Q00526)	0.5

====

tested on: five lines without CCNE1 amplification (ovarian cancer); assay: CellTiter Glo viability assay; type: cell-based; settings: 144 h, six days, read-out: IC50, range

compound	assayedSystem	IC50
NS(=O)(=O)c1ccc(Nc2ncc3cc4n(c3n2)C2(CCCCC2)C(=O)NN4)cc1 [INX-315]	five lines without CCNE1 amplification (ovarian cancer)	159 to 3560 nM

====

This listing pairs molecules with measured IC50.
biological target: CDK6/cyclin D3 (Homo sapiens, UniProt Q00534); construct: purchased Carna 04-107; assay: Nanosyn biochemical assay; settings: ATP at Km, value (SEM), read-out: IC50 (nmol/L) CDK6/cyclin D3
Sequence (Q00534 whole entry): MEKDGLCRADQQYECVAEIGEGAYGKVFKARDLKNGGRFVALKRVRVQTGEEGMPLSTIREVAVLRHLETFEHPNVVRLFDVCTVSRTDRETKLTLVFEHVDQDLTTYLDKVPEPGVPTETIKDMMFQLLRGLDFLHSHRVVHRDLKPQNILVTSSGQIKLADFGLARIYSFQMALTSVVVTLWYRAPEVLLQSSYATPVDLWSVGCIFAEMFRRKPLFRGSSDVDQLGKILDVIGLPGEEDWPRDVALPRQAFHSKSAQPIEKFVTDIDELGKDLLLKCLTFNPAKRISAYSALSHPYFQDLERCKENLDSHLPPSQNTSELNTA
Sequence (P30281 whole entry partner): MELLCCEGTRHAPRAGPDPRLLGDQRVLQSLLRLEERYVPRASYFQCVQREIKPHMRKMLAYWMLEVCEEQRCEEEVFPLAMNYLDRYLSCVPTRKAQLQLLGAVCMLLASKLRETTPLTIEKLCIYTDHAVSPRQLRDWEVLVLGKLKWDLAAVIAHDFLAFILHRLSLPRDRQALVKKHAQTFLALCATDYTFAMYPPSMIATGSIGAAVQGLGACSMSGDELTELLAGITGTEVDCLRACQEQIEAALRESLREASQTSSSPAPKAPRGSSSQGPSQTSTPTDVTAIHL
measuredEndpoint: IC50 (nmol/L)

molecule	assayedSystem	measuredEndpoint	unitTag	endpointValue
NS(=O)(=O)c1ccc(Nc2ncc3cc4n(c3n2)C2(CCCCC2)CN=C4)cc1 [Compound B]	CDK6/cyclin D3 (Homo sapiens, UniProt Q00534)	IC50	nmol/L	8.6
C[C@@H]1NC(=O)C2(CCCCC2)n2c1cc1cnc(Nc3ccc(S(N)(=O)=O)cc3)nc12 [Compound C]	CDK6/cyclin D3 (Homo sapiens, UniProt Q00534)	IC50	nmol/L	214

====

Test: Microsomal stability assay
Type: in vitro ADME
Settings: male, Sprague-Dawley, rat, liver microsomes, 1 µmol/L, 60 min incubation, read-out: Half-life
Method: Microsomal stability was determined by Absorption Systems (Exton, PA). INX-315 was tested in mixed-gender human liver microsomes (Lot #1010420), male Sprague-Dawley rat liver microsomes (Lot #1910100), male CD-1 mouse liver microsomes (Lot #2010017), and male beagle dog liver microsomes (Lot #2010046) were purchased from XenoTech/BioIVT by Absorption Systems. […] Half-lives and clearance were calculated using GraphPad software (RRID:SCR_002798), fitting to a single-phase exponential decay equation.

molecule	half-life at 1 µmol/L
C[C@@H]1NC(=O)C2(CCCCC2)n2c1cc1cnc(Nc3ccc(S(N)(=O)=O)cc3)nc12 [Compound C]	< 10 min
NS(=O)(=O)c1ccc(Nc2ncc3cc4n(c3n2)C2(CCCCC2)CN=C4)cc1 [Compound B]	< 10 min
CN1CCN(c2ccc(Nc3ncc4cc5n(c4n3)C3(CCCCC3)CNC5=O)nc2)CC1 [Trilaciclib, reference compound]	> 60 min
NS(=O)(=O)c1ccc(Nc2ncc3cc4n(c3n2)C2(CCCCC2)C(=O)NN4)cc1 [INX-315]	> 60 min

====

molecular target: CDK2/cyclin E1 (Homo sapiens, UniProt P24941); construct: purchased Millipore 14-475; test: Nanosyn biochemical assay; settings: Nanosyn, ATP at Km; value (SEM); read-out: IC50 (nmol/L) CDK2/cyclin E1
pIC50: −log10 of the molar value.
Form field: pIC50 (one value per entry).

querySmiles	assayedSystem	pIC50
NS(=O)(=O)c1ccc(Nc2ncc3cc4n(c3n2)C2(CCCCC2)CN=C4)cc1	CDK2/cyclin E1 (Homo sapiens, UniProt P24941)	10.00
C[C@@H]1NC(=O)C2(CCCCC2)n2c1cc1cnc(Nc3ccc(S(N)(=O)=O)cc3)nc12	CDK2/cyclin E1 (Homo sapiens, UniProt P24941)	8.30

====

assay: pKa; format: physicochemical; conditions: read-out: pKa (basic)
measuredEndpoint: pKa

querySmiles	endpointValue
NS(=O)(=O)c1ccc(Nc2ncc3cc4n(c3n2)C2(CCCCC2)C(=O)NN4)cc1	5.08

====

molecular target: CDK6/cyclin D3 (Homo sapiens); construct: purchased Carna 04-107; experiment: Nanosyn biochemical assay; conditions: Supp Fig S1C, value (SEM), read-out: IC50 (nM) CDK6/cyclin D3

compound	IC50
COCc1cc(C(=O)Nc2cc([C@H]3CC[C@@H](OC(=O)NC(C)C)C3)[nH]n2)n(C)n1 [PF-07104091, reference compound]	> 1000 nM

====

biological target: CDK5 (Homo sapiens, UniProt Q00535); construct: purchased ThermoFisher PV3000; assay: Nanosyn biochemical assay; conditions: Supp Fig S1D, representative dose response curve, read-out: IC50 CDK5 - p35
Sequence (Q00535 whole entry): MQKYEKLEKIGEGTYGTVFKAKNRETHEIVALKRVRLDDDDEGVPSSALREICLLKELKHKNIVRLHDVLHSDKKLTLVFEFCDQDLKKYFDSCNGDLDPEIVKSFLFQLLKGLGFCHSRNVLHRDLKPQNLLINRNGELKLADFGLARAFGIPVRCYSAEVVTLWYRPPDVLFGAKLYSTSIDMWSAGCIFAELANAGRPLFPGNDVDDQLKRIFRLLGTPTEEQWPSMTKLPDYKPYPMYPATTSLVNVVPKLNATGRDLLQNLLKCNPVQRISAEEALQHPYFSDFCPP
Sequence (Q15078 2-307 partner limits assumed): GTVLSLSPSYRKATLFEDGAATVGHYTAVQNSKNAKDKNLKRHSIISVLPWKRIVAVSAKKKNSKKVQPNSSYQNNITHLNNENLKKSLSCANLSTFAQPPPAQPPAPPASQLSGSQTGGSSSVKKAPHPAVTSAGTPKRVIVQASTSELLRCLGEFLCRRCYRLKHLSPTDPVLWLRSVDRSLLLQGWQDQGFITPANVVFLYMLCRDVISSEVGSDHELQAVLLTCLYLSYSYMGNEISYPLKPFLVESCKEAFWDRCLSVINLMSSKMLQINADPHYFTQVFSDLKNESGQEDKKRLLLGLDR

molecule	IC50 [nM]
NS(=O)(=O)c1ccc(Nc2ncc3cc4n(c3n2)C2(CCCCC2)C(=O)NN4)cc1 [INX-315]	23.1

====

test: pKa; assay type: physicochemical; conditions: read-out: pKa (acidic)

querySmiles	pKa
NS(=O)(=O)c1ccc(Nc2ncc3cc4n(c3n2)C2(CCCCC2)C(=O)NN4)cc1	10.4

====

Entries annotated with measured IC50
molecular target: CDK1/cyclin B1 (Homo sapiens, UniProt P06493); construct: purchased Millipore 14-450M; assay: Nanosyn biochemical assay; settings: ATP at Km, value (SEM), read-out: IC50 (nmol/L) CDK1/cyclin B1
Sequence (P06493 whole entry): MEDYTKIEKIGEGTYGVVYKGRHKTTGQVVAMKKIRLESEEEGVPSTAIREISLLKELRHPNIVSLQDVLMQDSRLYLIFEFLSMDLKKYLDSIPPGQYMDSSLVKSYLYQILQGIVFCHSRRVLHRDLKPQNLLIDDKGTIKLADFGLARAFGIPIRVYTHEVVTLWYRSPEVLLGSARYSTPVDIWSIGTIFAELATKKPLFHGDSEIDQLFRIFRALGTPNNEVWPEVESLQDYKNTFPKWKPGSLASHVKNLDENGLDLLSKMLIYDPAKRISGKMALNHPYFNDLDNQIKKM
Sequence (P14635 whole entry partner): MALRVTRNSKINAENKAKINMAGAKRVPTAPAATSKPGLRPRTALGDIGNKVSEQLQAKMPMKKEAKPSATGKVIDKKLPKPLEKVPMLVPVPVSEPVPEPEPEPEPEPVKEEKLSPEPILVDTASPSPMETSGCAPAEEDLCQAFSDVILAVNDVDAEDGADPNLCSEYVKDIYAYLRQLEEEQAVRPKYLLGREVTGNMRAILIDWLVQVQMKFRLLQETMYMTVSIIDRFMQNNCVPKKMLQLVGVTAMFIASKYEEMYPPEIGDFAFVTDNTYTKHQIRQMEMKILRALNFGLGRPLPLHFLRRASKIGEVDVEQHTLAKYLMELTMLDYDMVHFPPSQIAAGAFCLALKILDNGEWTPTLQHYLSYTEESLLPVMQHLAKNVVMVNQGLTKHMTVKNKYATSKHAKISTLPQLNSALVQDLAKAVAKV

querySmiles	assayedSystem	IC50 / nmol/L
C[C@@H]1NC(=O)C2(CCCCC2)n2c1cc1cnc(Nc3ccc(S(N)(=O)=O)cc3)nc12	CDK1/cyclin B1 (Homo sapiens, UniProt P06493)	41
NS(=O)(=O)c1ccc(Nc2ncc3cc4n(c3n2)C2(CCCCC2)CN=C4)cc1	CDK1/cyclin B1 (Homo sapiens, UniProt P06493)	1.2

====

target: CDK4/cyclin D1 (Homo sapiens, UniProt P11802); construct: purchased ThermoFisher PV4400; assay: Nanosyn biochemical assay; conditions: Supp Fig S1D, representative dose response curve, read-out: IC50 CDK4 - Cyclin D
Sequence (P11802 whole entry): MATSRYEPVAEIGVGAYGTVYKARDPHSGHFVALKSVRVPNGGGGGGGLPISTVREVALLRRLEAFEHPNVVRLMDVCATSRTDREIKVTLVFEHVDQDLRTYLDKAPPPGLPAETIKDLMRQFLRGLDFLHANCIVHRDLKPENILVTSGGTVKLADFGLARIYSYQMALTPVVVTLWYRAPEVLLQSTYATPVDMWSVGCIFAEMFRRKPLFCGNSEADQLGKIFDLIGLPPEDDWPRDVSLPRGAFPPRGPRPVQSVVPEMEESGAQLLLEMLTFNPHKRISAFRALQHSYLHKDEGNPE
Sequence (P24385 whole entry partner): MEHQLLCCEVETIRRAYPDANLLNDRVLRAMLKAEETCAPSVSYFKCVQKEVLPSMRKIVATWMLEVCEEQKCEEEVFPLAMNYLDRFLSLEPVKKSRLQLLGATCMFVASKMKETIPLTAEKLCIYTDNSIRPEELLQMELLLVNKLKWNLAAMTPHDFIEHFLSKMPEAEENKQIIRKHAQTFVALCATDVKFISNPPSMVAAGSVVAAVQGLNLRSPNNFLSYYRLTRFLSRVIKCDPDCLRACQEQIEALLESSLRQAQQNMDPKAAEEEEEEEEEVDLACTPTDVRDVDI
measuredEndpoint: IC50 (nM)

compound	measuredEndpoint	endpointValue
NS(=O)(=O)c1ccc(Nc2ncc3cc4n(c3n2)C2(CCCCC2)C(=O)NN4)cc1 [INX-315]	IC50	127

====

target: T1, CDK9/cyclin T1 (Homo sapiens, UniProt P50750); test: Nanosyn biochemical assay; details: ATP at Km, value (SEM), read-out: IC50 (nmol/L) CDK9/cyclin T1
T1 construct: purchased Carna 04-110

querySmiles	unitTag	IC50
NS(=O)(=O)c1ccc(Nc2ncc3cc4n(c3n2)C2(CCCCC2)CN=C4)cc1	nmol/L	1.6

====

Readings of half-life at 1 µmol/L for the listed compounds
assay: Microsomal stability assay; assay type: in vitro ADME; conditions: male, beagle, dog, liver microsomes, 1 µmol/L, 60 min incubation, read-out: Half-life
measuredEndpoint: half-life at 1 µmol/L (min)

compound	ltGtEq	endpointValue
CN1CCN(c2ccc(Nc3ncc4cc5n(c4n3)C3(CCCCC3)CNC5=O)nc2)CC1 [Trilaciclib, reference compound]	=	5
C[C@@H]1NC(=O)C2(CCCCC2)n2c1cc1cnc(Nc3ccc(S(N)(=O)=O)cc3)nc12 [Compound C]	=	23.4
NS(=O)(=O)c1ccc(Nc2ncc3cc4n(c3n2)C2(CCCCC2)CN=C4)cc1 [Compound B]	<	10
NS(=O)(=O)c1ccc(Nc2ncc3cc4n(c3n2)C2(CCCCC2)C(=O)NN4)cc1 [INX-315]	>	60

====

assay: Microsomal stability assay; type: in vitro ADME; details: both sexes, human, liver microsomes, longer than the duration of the experiment, read-out: calculated half-life (in parenthesis)
measuredEndpoint: half-life at 1 µmol/L (h)

molecule	measuredEndpoint	endpointValue
CN1CCN(c2ccc(Nc3ncc4cc5n(c4n3)C3(CCCCC3)CNC5=O)nc2)CC1 [Trilaciclib, reference compound]	half-life at 1 µmol/L	1.1
NS(=O)(=O)c1ccc(Nc2ncc3cc4n(c3n2)C2(CCCCC2)C(=O)NN4)cc1	half-life at 1 µmol/L	1.78

====

target: CDK2/cyclin E1 (Homo sapiens); construct: purchased Millipore 14-475; test: Nanosyn biochemical assay; conditions: Supp Fig S1C, Nanosyn; value (SEM); read-out: IC50 (nM) CDK2/cyclin E1

querySmiles	IC50 [nM]
NS(=O)(=O)c1ccc(Nc2ncc3cc4n(c3n2)C2(CCCCC2)C(=O)NN4)cc1	0.6
